Target Or Test System: Mu-type opioid receptor (Homo sapiens, UniProt P35372)
Sequence (P35372 whole entry): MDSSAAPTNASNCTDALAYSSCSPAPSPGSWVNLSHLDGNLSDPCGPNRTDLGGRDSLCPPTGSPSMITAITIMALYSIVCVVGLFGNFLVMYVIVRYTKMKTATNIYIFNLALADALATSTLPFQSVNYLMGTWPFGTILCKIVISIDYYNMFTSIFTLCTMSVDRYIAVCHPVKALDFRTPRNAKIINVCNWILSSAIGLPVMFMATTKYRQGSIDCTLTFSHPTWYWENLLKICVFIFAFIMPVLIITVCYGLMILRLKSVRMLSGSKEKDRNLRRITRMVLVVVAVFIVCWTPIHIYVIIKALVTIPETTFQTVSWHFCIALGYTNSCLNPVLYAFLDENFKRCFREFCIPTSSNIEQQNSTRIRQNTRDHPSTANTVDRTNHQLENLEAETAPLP
Test Name: Agonist activity at mu opioid receptor (unknown origin) expressed CHO cells assessed as stimulation of [35S]-GTP[gammaS] binding relative to DAMGO
Format: cell-based
Measured Metric: Emax (%)
The response must be a number in % with no trailing unit.

Study these solved cases before continuing.
O=C(N[C@@]12CCC(=O)[C@@H]3Oc4c(O)ccc5c4[C@@]31CCN(CC1CC1)[C@@H]2C5)c1ccccc1; 5.79
O=C(N[C@@]12CCC(=O)[C@@H]3Oc4c(O)ccc5c4[C@@]31CCN(CC1CC1)[C@@H]2C5)c1ccc2ccccc2c1; 16.5
O=C(N[C@@]12CCC(=O)[C@@H]3Oc4c(O)ccc5c4[C@@]31CCN(CC1CC1)[C@@H]2C5)c1ccncc1; 7.74
O=C(N[C@@]12CCC(=O)[C@@H]3Oc4c(O)ccc5c4[C@@]31CCN(CC1CC1)[C@@H]2C5)c1cnc2ccccc2c1; 15.8

# evaluate next
[Q] Emax lookup needed for O=C(N[C@@]12CCC(=O)[C@@H]3Oc4c(O)ccc5c4[C@@]31CCN(CC1CC1)[C@@H]2C5)c1ccc2ccccc2n1 , thanks.
[A] 34.4
